- Tested on: Escherichia coli TOP10
- test.protocol: shrunken log2 fold change of peptide-encoding DNA abundance (4.5 h post-induction vs induction); higher = less antimicrobial activity (less host growth inhibition)
- experimental.setup: time post-induction: 4.5 h; library: site-saturation at positions 5, 18, 19, 20
Quick rule: shrunken log2 fold change of at least -0.06 means Y, below that means N.

Worked examples follow.
| seq.text | category.label |
| --- | --- |
| RRIRIRPPRLPRPRPRPDYSPRP | N |
| RRIRKRPPRLPRPRPRPPRYPRP | Y |
| RRIRCRPPRLPRPRPRPKTKPRP | Y |
| RRIRSRPPRLPRPRPRPLGAPRP | Y |
| RRIRTRPPRLPRPRPRPTIQPRP | Y |
| RRIRGRPPRLPRPRPRPDRTPRP | Y |
| RRIRPRPPRLPRPRPRPDQVPRP | Y |
| RRIRYRPPRLPRPRPRPYQIPRP | N |
| RRIRERPPRLPRPRPRPNIIPRP | N |
| RRIRARPPRLPRPRPRPMTCPRP | N |

**Q:** Reported shrunken log2 fold change reaches at least -0.06 for RRIRMRPPRLPRPRPRPYCVPRP ?
**A:** Y

**Q:** Reported shrunken log2 fold change reaches at least -0.06 for RRIRKRPPRLPRPRPRPDYWPRP ?
**A:** Y

* * *

Consider the following sequences; for each one, report its shrunken log2 fold change.
- System: Escherichia coli TOP10
- test.protocol: shrunken log2 fold change of peptide-encoding DNA abundance (4.5 h post-induction vs induction); higher = less antimicrobial activity (less host growth inhibition)
- experimental.setup: time post-induction: 4.5 h; library: site-saturation at positions 5, 18, 19, 20
Numbers only.

Worked cases, answers included:
| seq.text | shrunken log2 fold change |
| --- | --- |
| RRIRSRPPRLPRPRPRPCRAPRP | -0.0808 |
| RRIRCRPPRLPRPRPRPTDVPRP | -0.461 |
| RRIRKRPPRLPRPRPRPMKQPRP | -0.108 |
| RRIRQRPPRLPRPRPRPWQRPRP | -0.0557 |
| RRIRGRPPRLPRPRPRPASLPRP | 0.472 |

Could you report shrunken log2 fold change for every entry in the following list?
1. RRIRLRPPRLPRPRPRPFHKPRP
2. RRIRQRPPRLPRPRPRPDNNPRP

**A:**
1: -0.54; 2: -1.14

Measured shrunken log2 fold change of RRIRCRPPRLPRPRPRPWRMPRP : -0.116

* * *

- Test system: Escherichia coli TOP10
- test.protocol: shrunken log2 fold change of peptide-encoding DNA abundance (4.5 h post-induction vs induction); higher = less antimicrobial activity (less host growth inhibition)
- experimental.setup: time post-induction: 4.5 h; library: site-saturation at positions 5, 18, 19, 20
Quick rule: shrunken log2 fold change of at least -0.09 means 1, below that means -1.

Worked examples follow.
| seq.text | category.label |
| --- | --- |
| RRIRTRPPRLPRPRPRPTKEPRP | 1 |
| RRIRWRPPRLPRPRPRPFQPPRP | 1 |
| RRIRMRPPRLPRPRPRPPFLPRP | 1 |
| RRIRVRPPRLPRPRPRPKYCPRP | -1 |
| RRIRDRPPRLPRPRPRPMVSPRP | 1 |

Let us examine a further case.
**Q:** Reported shrunken log2 fold change reaches at least -0.09 for RRIRHRPPRLPRPRPRPWAKPRP ?
**A:** -1

* * *

- Test system: Escherichia coli TOP10
- test.protocol: shrunken log2 fold change of peptide-encoding DNA abundance (4.5 h post-induction vs induction); higher = less antimicrobial activity (less host growth inhibition)
- experimental.setup: time post-induction: 4.5 h; library: site-saturation at positions 5, 18, 19, 20
Consider the following sequences; for each one, report its shrunken log2 fold change.
Numbers only.

Worked cases, answers included:
| seq.text | shrunken log2 fold change |
| --- | --- |
| RRIRHRPPRLPRPRPRPPAGPRP | 0.344 |
| RRIRVRPPRLPRPRPRPNGCPRP | 0.0454 |
| RRIRNRPPRLPRPRPRPIYWPRP | 0.0553 |

Could you report shrunken log2 fold change for every entry in the following list?
1. RRIRKRPPRLPRPRPRPYADPRP
2. RRIRYRPPRLPRPRPRPTRIPRP
3. RRIRQRPPRLPRPRPRPRKVPRP
4. RRIRERPPRLPRPRPRPMKWPRP

**A:**
1. -0.0355
2. -0.0491
3. -0.00271
4. -0.0404

Could you report shrunken log2 fold change for every entry in the following list?
1. RRIRYRPPRLPRPRPRPYMHPRP
2. RRIRSRPPRLPRPRPRPWKHPRP

**A:**
1: 0.0498; 2: -0.0883

* * *

Consider the following sequences; for each one, report its shrunken log2 fold change.
- System: Escherichia coli TOP10
- test.protocol: shrunken log2 fold change of peptide-encoding DNA abundance (4.5 h post-induction vs induction); higher = less antimicrobial activity (less host growth inhibition)
- experimental.setup: time post-induction: 4.5 h; library: site-saturation at positions 5, 18, 19, 20

Worked cases, answers included:
| seq.text | target.of.assay | shrunken log2 fold change |
| --- | --- | --- |
| RRIRNRPPRLPRPRPRPAGAPRP | Escherichia coli TOP10 | 0.665 |
| RRIRTRPPRLPRPRPRPVHFPRP | Escherichia coli TOP10 | 0.218 |
| RRIRERPPRLPRPRPRPPYHPRP | Escherichia coli TOP10 | -0.456 |

Could you report shrunken log2 fold change for every entry in the following list?
1. RRIRPRPPRLPRPRPRPCKDPRP
2. RRIRTRPPRLPRPRPRPESSPRP
3. RRIRTRPPRLPRPRPRPKYPPRP
4. RRIRKRPPRLPRPRPRPLIDPRP
5. RRIRCRPPRLPRPRPRPSTNPRP

**A:**
-0.374
-0.0341
-0.252
0.449
-0.911

* * *

- Tested on: Escherichia coli TOP10
- test.protocol: shrunken log2 fold change of peptide-encoding DNA abundance (4.5 h post-induction vs induction); higher = less antimicrobial activity (less host growth inhibition)
- experimental.setup: time post-induction: 4.5 h; library: site-saturation at positions 5, 18, 19, 20
Quick rule: shrunken log2 fold change of at least 0.03 means true, below that means false.

| seq.text | target.of.assay | category.label |
| --- | --- | --- |
| RRIRHRPPRLPRPRPRPAVGPRP | Escherichia coli TOP10 | true |
| RRIRSRPPRLPRPRPRPHLRPRP | Escherichia coli TOP10 | true |
| RRIRYRPPRLPRPRPRPKGYPRP | Escherichia coli TOP10 | false |
| RRIRSRPPRLPRPRPRPRRYPRP | Escherichia coli TOP10 | false |
| RRIRVRPPRLPRPRPRPISPPRP | Escherichia coli TOP10 | true |
| RRIRCRPPRLPRPRPRPQHDPRP | Escherichia coli TOP10 | false |

**Q:** Reported shrunken log2 fold change reaches at least 0.03 for RRIRTRPPRLPRPRPRPLLIPRP ?
**A:** false

**Q:** Reported shrunken log2 fold change reaches at least 0.03 for RRIRFRPPRLPRPRPRPYIDPRP ?
**A:** false

* * *

- Tested on: Escherichia coli TOP10
- test.protocol: shrunken log2 fold change of peptide-encoding DNA abundance (4.5 h post-induction vs induction); higher = less antimicrobial activity (less host growth inhibition)
- experimental.setup: time post-induction: 4.5 h; library: site-saturation at positions 5, 18, 19, 20
assay.metric: shrunken log2 fold change
Numbers only.

Worked cases, answers included:
| seq.text | shrunken log2 fold change |
| --- | --- |
| RRIRNRPPRLPRPRPRPIFMPRP | -0.116 |
| RRIRRRPPRLPRPRPRPPPNPRP | 0.951 |
| RRIRERPPRLPRPRPRPPSYPRP | -0.0583 |
| RRIRLRPPRLPRPRPRPRHPPRP | 0.163 |
| RRIRSRPPRLPRPRPRPKSVPRP | -0.0236 |
| RRIRTRPPRLPRPRPRPHGRPRP | 0.0169 |

Could you report shrunken log2 fold change for every entry in the following list?
1. RRIRMRPPRLPRPRPRPFAHPRP
2. RRIRKRPPRLPRPRPRPFDTPRP

**A:**
-0.00592
-0.0262

* * *

- System: Escherichia coli TOP10;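 note: peptides expressed intracellularly from a pBAD plasmid library in pooled LB shake-flask culture, induced with 0.3% L-arabinose, DNA abundance read by NGS, three biological replicates, DESeq2 with apeglm shrinkage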
- test.protocol: shrunken log2 fold change of peptide-encoding DNA abundance (4.5 h post-induction vs induction); higher = less antimicrobial activity (less host growth inhibition)
- experimental.setup: time post-induction: 4.5 h; library: site-saturation at positions 5, 18, 19, 20
Quick rule: shrunken log2 fold change of at least 0.08 means t, below that means f.

| seq.text | target.of.assay | category.label |
| --- | --- | --- |
| RRIRHRPPRLPRPRPRPLICPRP | Escherichia coli TOP10 | f |
| RRIRGRPPRLPRPRPRPRGPPRP | Escherichia coli TOP10 | t |
| RRIRGRPPRLPRPRPRPTVTPRP | Escherichia coli TOP10 | t |
| RRIRIRPPRLPRPRPRPTRGPRP | Escherichia coli TOP10 | f |
| RRIRSRPPRLPRPRPRPTVEPRP | Escherichia coli TOP10 | t |
| RRIRRRPPRLPRPRPRPCLRPRP | Escherichia coli TOP10 | f |
| RRIRSRPPRLPRPRPRPTVKPRP | Escherichia coli TOP10 | f |
| RRIRIRPPRLPRPRPRPHEMPRP | Escherichia coli TOP10 | f |

**Q:** Reported shrunken log2 fold change reaches at least 0.08 for RRIRNRPPRLPRPRPRPWFVPRP ?
**A:** f

**Q:** Reported shrunken log2 fold change reaches at least 0.08 for RRIRDRPPRLPRPRPRPKGEPRP ?
**A:** f

**Q:** Reported shrunken log2 fold change reaches at least 0.08 for RRIRTRPPRLPRPRPRPGIEPRP ?
**A:** f
